Origin of values: patent US10308667B2

Target Or System: human GOAT (Homo sapiens (Human))
Experiment Summary: Determination of hGOAT Activity in HEK293 Cells after Incubation with Test Compound
Setup Conditions: HEK293 cells stably transfected with preproghrelin and human GOAT; octanoate-BSA 100 μM; acyl-ghrelin in medium by ELISA after 5 hours
Quantity: pIC50
pIC50 (log units): -log10 of the concentration in mol/L.

The value of pIC50 measured for the compound Cc1nc2nonc2c(N)c1Cc1ccc(C#N)c(OCC2(C)COC2)n1 [Example 111] turned out to be 10.00

compound Cc1nc2nonc2c(N)c1Cc1ccc(Br)c(N2CCOCC2)n1 [Example 123] , pIC50 observed: 10.59

Per the records, this compound ( Cc1nc2nonc2c(N)c1Cc1cc(Cl)c(C(F)(F)F)cn1 [Example 20] ) has pIC50 equal to 9.77

Please fill in: pIC50 reported for Cc1nc2nonc2c(N)c1Cc1ccc(C#N)c(NCC(C)(C)C(N)=O)n1 [Example 148] = 9.82

Per the records, this compound ( Cc1nc2nonc2c(N)c1Cc1ccc(C#N)c(NCC2(C)COC2)n1 [Example 135] ) has pIC50 equal to 9.70

pIC50 in this record for Cc1nc2nonc2c(N)c1Cc1ccc(C(F)(F)F)c(C#N)n1 [Example 48] : 9.74

---

Target Or System: UniProt Q96T53
Experiment Summary: Determination of hGOAT Activity in HEK293 Cells after Incubation with Test Compound
Setup Conditions: HEK293 cells stably transfected with preproghrelin and human GOAT; octanoate-BSA 100 μM; acyl-ghrelin in medium by ELISA after 5 hours
What log10(IC50) was measured for each of the following?
In plain terms, each number is the log10 of measured IC50 in nM.

// sample "Cc1nc2nonc2c(N)c1Cc1ccc(C#N)c(N2CC(F)(F)C2)n1" , its log10(IC50) was -1.57

Recorded result, "Cc1nc2nonc2c(N)c1Cc1ccc(Br)c(NCC(C)(C)C#N)n1" , log10(IC50): -1.00

For "Cc1nc2nonc2c(N)c1Cc1ccc(C2CC2)cn1" the compound record lists log10(IC50) as -0.74

The measured log10(IC50) associated with "Cc1nc2nonc2c(N)c1Cc1ccc(Br)c(NC2CC(F)(F)C2)n1" reads -1.02

Memo: "Cc1nc2nonc2c(N)c1Cc1ccc(Br)c(N2CC(C)(O)C2)n1" , reported log10(IC50): -1.48

// log10(IC50) lookup, compound = "Cc1nc2nonc2c(N)c1Cc1ccc(C#N)c(OCCC(F)(F)F)n1" , result: -0.55

Consider "Cc1nc2nonc2c(N)c1Cc1ccc(N2CC(F)(F)C2)c(C#N)n1" . Its measured log10(IC50) is 0.26

Value of log10(IC50) reported for the compound "Cc1nc2nonc2c(N)c1Cc1ccc(C#N)c(NC2CC(F)(F)C2)n1" is -0.82

Lab note: measured log10(IC50) of "Cc1nc2nonc2c(N)c1Cc1ccc(C#N)c(NCCC(F)F)n1" was -1.26

Reported log10(IC50) of "Cc1nc2nonc2c(N)c1Cc1cccc(-c2c(C)noc2C)n1" : -0.32

Measured log10(IC50) of "Cc1nc2nonc2c(N)c1Cc1ccc(C#N)c(Cl)n1" : -0.92

Reported log10(IC50) of "Cc1nc2nonc2c(N)c1Cc1ncc(C#N)cn1" : 0.58

log10(IC50) reported for this compound "COc1ccc(Cc2c(C)nc3nonc3c2N)nc1" : 0.15

Short answer for "Cc1nc2nonc2c(N)c1Cc1cccc(C(C)(C)C#N)n1" : log10(IC50) was -0.32

Data point: "Cc1nc2nonc2c(N)c1Cc1ccc(C#N)c(OCC(F)(F)F)n1" ; log10(IC50) = -0.48

Recorded log10(IC50) (compound "Cc1nc2nonc2c(N)c1Cc1ccc(C(C)(F)F)cn1" ): -0.89

The reported value for "Cc1nc2nonc2c(N)c1Cc1ccc(F)cn1" in terms of log10(IC50) is 0.81

Looking up Cc1nc2nonc2c(N)c1Cc1ccc(C#N)c(NCC2(C)CCOC2)n1 (stereo not drawn) , I see its log10(IC50) listed as -0.60

For this compound ( "Cc1nc2nonc2c(N)c1Cc1cccc(F)n1" ), measured log10(IC50) is 0.64

Per the records, this compound ( "Cc1nc2nonc2c(N)c1Cc1ccc(C#N)c(NCC(C)(C)C#N)n1" ) has log10(IC50) equal to 0.04

Memo: "Cc1nc2nonc2c(N)c1Cc1ccc(C(F)(F)F)c(C(=O)C(C)C)n1" , reported log10(IC50): -0.82

Lab book: log10(IC50) of "Cc1nc2nonc2c(N)c1Cc1ccc(OC(F)F)c(Br)n1" noted as -1.42

Query "Cc1nc2nonc2c(N)c1Cc1ccc(C#N)c(OCC(C)(C)O)n1" yields log10(IC50) of -0.92

Reported log10(IC50) of "Cc1nc2nonc2c(N)c1Cc1ccc(C#N)c(S(C)(=O)=O)n1" : 0.66

Measured log10(IC50), "Cc1nc2nonc2c(N)c1Cc1ccc(C(F)(F)F)c(C(N)=O)n1" : -0.37

Measured log10(IC50) of "Cc1nc2nonc2c(N)c1Cc1cccc(-c2ccco2)n1" : -1.00

Notebook: "Cc1nc2nonc2c(N)c1Cc1ccc(Br)c(OCCF)n1" , log10(IC50) read as -1.47

---

Task for the reader: assign each of the following molecules its reported IC50.
Target Or System: human GOAT (Homo sapiens (Human))
Experiment Summary: Determination of hGOAT Activity in HEK293 Cells after Incubation with Test Compound
Setup Conditions: HEK293 cells stably transfected with preproghrelin and human GOAT; octanoate-BSA 100 μM; acyl-ghrelin in medium by ELISA after 5 hours

The measured IC50 associated with "Cc1nc2nonc2c(N)c1Cc1ccc(-n2cc(F)cn2)c(C#N)n1" reads 1.2 nM

GET /value?item= "Cc1nc2nonc2c(N)c1Cc1ccc(C#N)c(C#N)n1" &field=IC50 returns 1.7 nM

Entry "Cc1nc2nonc2c(N)c1Cc1ccc(N2CCOCC2)c(C#N)n1" ; IC50 = 0.6 nM

Just so you know, measured IC50 for "Cc1nc2nonc2c(N)c1Cc1ccc(OC(F)F)c(C(N)=O)n1" came out at 0.54 nM

---

Target Or System: human GOAT (Homo sapiens (Human), UniProt Q96T53)
Sequence (Q96T53 whole entry): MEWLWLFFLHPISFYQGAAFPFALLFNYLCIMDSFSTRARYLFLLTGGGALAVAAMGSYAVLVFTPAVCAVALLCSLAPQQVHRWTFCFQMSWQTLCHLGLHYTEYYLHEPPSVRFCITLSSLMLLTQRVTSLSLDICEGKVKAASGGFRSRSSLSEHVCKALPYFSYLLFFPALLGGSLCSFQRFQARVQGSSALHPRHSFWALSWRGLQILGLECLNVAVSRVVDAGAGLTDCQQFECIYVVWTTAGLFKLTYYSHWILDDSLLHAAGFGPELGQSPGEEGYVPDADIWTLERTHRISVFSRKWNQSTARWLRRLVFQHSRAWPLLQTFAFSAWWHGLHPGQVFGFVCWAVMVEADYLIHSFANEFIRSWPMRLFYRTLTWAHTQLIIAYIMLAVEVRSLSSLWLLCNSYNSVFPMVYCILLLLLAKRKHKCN
Experiment Summary: Determination of hGOAT Activity in HEK293 Cells after Incubation with Test Compound
Setup Conditions: HEK293 cells stably transfected with preproghrelin and human GOAT; octanoate-BSA 100 μM; acyl-ghrelin in medium by ELISA after 5 hours
pIC50: −log10 of the molar value.
Lab note: anything with pIC50 at or over 9 counts as label 1; the rest go in label 0.

Is it the case that "Cc1nc2nonc2c(N)c1Cc1ccc(C#N)c(OCC(C)(F)F)n1" has pIC50 reaching or exceeding 9?
label 1

Is it the case that "Cc1nc2nonc2c(N)c1Cc1ccc(C#N)c(C2CC2)n1" has pIC50 reaching or exceeding 9?
label 1

Please indicate if the recorded pIC50 for "Cc1nc2nonc2c(N)c1Cc1ccc(C#N)c(OCCF)n1" meets or exceeds 9.
label 1

Determine whether measured pIC50 meets or exceeds 9 for "CSc1ccc(Cc2c(C)nc3nonc3c2N)nc1"
label 1

Evaluate Cc1nc2nonc2c(N)c1Cc1ncc(C#N)c(C2CCOC2)n1 (stereo not drawn) : pIC50 at minimum 9?
label 0

Hi, just wondering whether "Cc1nc2nonc2c(N)c1Cc1ccc(C#N)c(N2CCC(F)(F)C2)n1" shows pIC50 of 9 or higher.
label 1

Item "Cc1nc2nonc2c(N)c1Cc1ccc(-c2c(C)noc2C)c(N)n1" with pIC50 of 9 or above?
label 1

Does the compound "Cc1nc2nonc2c(N)c1Cc1nccc(C(F)(F)F)n1" have recorded pIC50 that is 9 or more?
label 0

Evaluate "Cc1nc2nonc2c(N)c1Cc1ccc(Br)c(NCC(C)(C)C(N)=O)n1" : pIC50 at minimum 9?
label 1

---

Exercise: for every item that follows, state its recorded IC50.
Target Or System: human GOAT (Homo sapiens (Human), UniProt Q96T53)
Experiment Summary: Determination of hGOAT Activity in HEK293 Cells after Incubation with Test Compound
Setup Conditions: HEK293 cells stably transfected with preproghrelin and human GOAT; octanoate-BSA 100 μM; acyl-ghrelin in medium by ELISA after 5 hours
Kindly provide the numeric value in nM only, without the unit symbol.

The compound "Cc1nc2nonc2c(N)c1Cc1ncc(C(F)(F)F)cn1" showed IC50 equal to 1.8

Recorded IC50 (compound "Cc1nc2nonc2c(N)c1Cc1nc(C(F)F)c(Cl)c(C(F)F)n1" ): 0.82

Given item "Cc1nc2nonc2c(N)c1Cc1cccc(C(N)=O)n1" , the value recorded as its IC50 is 0.72
